Test: yeast display, Sf9 membrane polyspecificity reagent, FACS + sequencing; frameworks hold sequencing errors
parameter: polyreactivity (PSR sort gate)

INSERT INTO assay_data (residue_string, result) VALUES
  ('QVQLVESGGGLVQAGGSLRLSCASSGIILYYYVMGWYRQAPGKERELVAAINRSGTSTYYADSVKGRFTISRDNAKNTVYLQMNSLKPEDTAVYYCAAERYWSGGVFDYDYWGQGTQVTVSS', 'high polyreactivity'),
  ('QVQLVESGGGLVQAGGSLRLSCAASGRTFTRNVMGWYRQAPGKERELVARISYSGGSTSYADSVKGRFTISRDNAKNTVYLQMNSLKPEDTAVYYCAKYSGKYVSGRYRYYSWGQGTQVTVSS', 'high polyreactivity'),
  ('QVQLVESGVGLVKAGGTLRLSCAASGGIFDYNAMGWYRQAPGKERELVAYYADSVKGRFTLSRDNAKNTVYLQMNSLKPEDTAVYYCAVDGGEFSSYGYWGQGTQVTVSS', 'low polyreactivity'),
  ('QVQLVESGAGLVQAGGSLRLSCAASGIIFDWYTMGWYRQAPGKERELVAAISWRGGRTYYADSVKGRFTISRDNAKNTVYLQMNSLKPEDTAVYYCAAEAPVQPFYVFNTGIYELDYWGQGTQVTVSS', 'low polyreactivity'),
  ('QVQLVESGGGLVQAGGSLRLSCAASGFTFYVNAMGWYRQAPGKERELVAAISSSGTRTYYADSVKGRFTISRDNAKNTVYLQMNSLKPEDTAVYYCAARGQAYSGDRMYYWGQGTQVTVSS', 'high polyreactivity'),
  ('QVQLVESGGGLVQAGGSLRLSCAASGSIFFKYTLGWYRQAPGKERELVAAISYSGGRTYYADSVKGRFTISRDTAKNTVYLQMNSLKPEDTAVYDGATRDEITHGDRMDYWGQGTQVTVSS', 'low polyreactivity'),
  ('QDQLVESGGGLVQAGGSLRLSCAASGRTFYLYAMGWYSQAPGKEREFVAVINSSGGSTYYADSVKGRFTISRDNAKNTVYLQMNSLKPEDTAVYYCAAYPIPRGRDYWGPGTQVTVSS', 'low polyreactivity'),
  ('QVQLVESGGGLVQAGGSLRLSCAASGRTFRAYTMGWYRQAPGKERELVAAISTPGGSTYYADSVKGRFTISRDNAKNTVYLQMNSLKPEDTAVYYCAADRYYWGQGTQVTVSS', 'low polyreactivity'),
  ('QVQLVESGGGLVQAGGSLRLSCAASGINFGYNVMGWYRQAPGKERELVAAISGSGSSTYYADSVKGRFTISRDNAKNTVYLQMNSLKPEDTAVYYCARQRYEYRTTYYYWGQGTQVTVSS', 'high polyreactivity'),
  ('QVQLVESGGGLVQEGGRLRLSCAASGRIFWDNDMGWYRQAPGKERELVAAISRRGGSTSYADSVKGRFTISRDNAKNTVYLQMNSLKPEDTAVFYCNVRTRWTRVRRYDYWGQVTQVTVSS', 'high polyreactivity'),
  ('QVQLVESGGGLVQAGGSLRLSCAASGSTLVTNPMGWYRQAPGKERELVAAITFSGGTTYYADSVKGRFTISRDTAKNTVYLHMNSLKPEDTAVYYCAAEIWLEYVGYDYWGQGTQVTVSS', 'high polyreactivity');
